Origin of measurements: PubChem BioAssay AID2315

# ASSAY: A qHTS for Small Molecule Inhibitors of Shiga Toxin
# TEST SETTINGS: Vero cells, Shiga toxin protein synthesis inhibition reporter; at 38.7 µM, hits give high values
Out of some 290,000 compounds screened, about 27,000 (9.3%) were called active. What follows is part of a selection rich in actives, with near analogues and random picks from the rest.
Listed compounds paired with reported inhibition
The response must be a number in % with no trailing unit.

Illustrative cases are given below, each with its answer.
COMPOUND: COc1ccc(CN2CCCC(C(=O)N3CCCCC3)C2)cc1 (configuration not stated)
UNIT ABBREVIATION: %
OBS VALUE: -9.61
//
COMPOUND: CC(C)C[C@H](NC(=O)C1CCC(CNC(=O)[C@@H]2CCCN2C(=O)OC(C)(C)C)CC1)C(=O)O (some centres not stated)
UNIT ABBREVIATION: %
OBS VALUE: -6.01
//
COMPOUND: CCOc1ccccc1NC(=S)N1CCN(c2cccc(C)c2C)CC1
UNIT ABBREVIATION: %
OBS VALUE: -4.41
//
COMPOUND: CC1CCN(C(=O)C2CCN(S(=O)(=O)N3CCC4(CC3)OCCO4)CC2)CC1
UNIT ABBREVIATION: %
OBS VALUE: -15.9
//
COMPOUND: O=C(CCS(=O)(=O)c1ccccc1)NC1CCCC1
UNIT ABBREVIATION: %
OBS VALUE: 55.4
//
COMPOUND: CNC(=S)N1N=C(c2ccccc2)CC1c1ccc(Br)cc1 (configuration not stated)
UNIT ABBREVIATION: %
OBS VALUE: 34.3

Recorded result, CC(NC(=O)c1ccccc1C(=O)O)c1ccc(-n2ccnc2)cc1 (configuration not stated) , inhibition: 14.3

inhibition reported for this compound CC1(C)C2CC=C(/C=N/NC(=O)c3ccc(Cl)cc3)C1C2 (configuration not stated) : 30.5

// recorded inhibition for CCc1ccc(OCC(=O)N(Cc2ccccc2)C2CCS(=O)(=O)C2)cc1 (configuration not stated) : -3.9

Field inhibition (entry `COc1cccc(CNc2nc(C(F)(F)F)nc3ccccc23)c1` ) reads -1.59

The compound listed as `O=C(Nc1ccc(F)cc1)c1cccnc1N1CCOCC1` has a reported inhibition of 28.6

Per the record, `CNC(=O)[C@]1(C(F)(F)F)C[C@H](CCc2ccccc2)CCCO1` has inhibition of 32.4

The compound identified as `O=C(CN1C(=O)/C(=C\c2ccccc2F)SC1=S)Nc1nc2ccccc2s1` registered its inhibition at 51.7

Lookup result for CN(C(=O)CC1C(=O)NCCN1Cc1ccc2ccccc2c1)C1CCOCC1 (configuration not stated) ; measured inhibition: -0.828

The reported inhibition of the compound `Cc1ccc(NC(=S)N2CCCC(c3ccccc3)=N2)cc1` was -2.73

The compound listed as CCc1ccc(N2CC(C(=O)Nc3ccc(S(=O)(=O)Nc4nccs4)cc3)CC2=O)cc1 (configuration not stated) has a reported inhibition of 16.7

Recorded inhibition (compound CC(=O)Nc1c2c(nn1-c1ccc(C)cc1C)CS(=O)C2 (configuration not stated) ): -1.19

The compound listed as `O=C(CN1C(=O)/C(=C/c2ccccc2F)Sc2ccccc21)NCc1cccnc1` shows inhibition equal to 13.6

inhibition recorded for this compound, `O=C(NCCc1ccccn1)c1nc(Cn2cc([N+](=O)[O-])cn2)no1` , is -5.12

inhibition measured on `COc1cccc(CNS(=O)(=O)c2cc3c(cc2C)n(C)c(=O)c(=O)n3C)c1` = -2.17

Entry COc1cccc(C(=O)N2CCC(n3nccc3NC(=O)C3CCOC3)CC2)c1 (configuration not stated) ; inhibition = -9.25

In plain terms, `COc1ccc(S(=O)(=O)N2CCC(C(=O)NCc3ccco3)CC2)cc1C` has a documented inhibition of -3.78

---

// values below are reported inhibition
# ASSAY: A qHTS for Small Molecule Inhibitors of Shiga Toxin
# TEST SETTINGS: Vero cells, Shiga toxin protein synthesis inhibition reporter; at 38.7 µM, hits give high values
Among all 290,000 compounds or so, about 27,000 (9.3%) were called active. Only a selection was taken, and actives are over-represented in it overall.
Field format: number, assumed %, no unit text.

Lab note: measured inhibition of `OCCCNc1nccc(-c2cc(Nc3cccc(Cl)c3)ncn2)n1` was 51.3

---

# ASSAY: A qHTS for Small Molecule Inhibitors of Shiga Toxin
# TEST SETTINGS: Vero cells, Shiga toxin protein synthesis inhibition reporter; at 38.7 µM
The campaign covered roughly 290,000 compounds. About 27,000 (9.3%) were called active. Cut-off read from the data, not from the text of the source: active = inhibition mostly above about 28% (no sharp cut-off); inactive = mostly below about 43%. This excerpt belongs to a sample that is enriched for actives.
Write down the outcome that applies. Available outcomes: label 1 for active, label 0 for inactive

COMPOUND: COc1ccc(N2CCN(C(=O)CCc3nc(-c4ccc(C)cc4)no3)CC2)cc1
CATEGORY: label 0
--
COMPOUND: CC(=O)Nc1ccc(NC(=O)c2ccc3c(c2)C(=O)N(c2ccccc2C)C3=O)cc1
CATEGORY: label 0
--
COMPOUND: N/C(=N\OC(=O)CCc1ccccc1)c1ccc(Cl)cc1
CATEGORY: label 1
--
COMPOUND: CC(=O)c1nn(-c2cccc(C(F)(F)F)c2)c(=O)[nH]c1=O
CATEGORY: label 0
--
COMPOUND: N/C(=N\OC(=O)CCc1ccccc1)c1cccnc1
CATEGORY: label 1

// switching to the query compound
stdin: State the result this test recorded for `O=C(CCC(=O)OCc1ccc(Cl)cc1)Nc1ccccc1` .
stdout: label 0

---

# ASSAY: A qHTS for Small Molecule Inhibitors of Shiga Toxin
# TEST SETTINGS: Vero cells, Shiga toxin protein synthesis inhibition reporter; at 38.7 µM
Out of some 290,000 compounds screened, about 27,000 (9.3%) were called active. Cut-off read from the data, not from the text of the source: active = inhibition mostly above about 28% (no sharp cut-off); inactive = mostly below about 43%. Many of the other results were omitted from the sample, so actives are more common in it than they were.
Pick from active, inactive when you respond.

MOLECULE: CCc1ccc(NC(=O)C(=O)N/N=C(\C)CC(=O)NCCOC)cc1
CATEGORY: active

MOLECULE: CCOc1ccc(S(=O)(=O)Nc2ccc(OC)nc2)cc1
CATEGORY: inactive

MOLECULE: COCCNC(=O)COc1ccc(C)c(C)c1
CATEGORY: inactive

MOLECULE: C/C(CC(=O)Nc1ccc(Cl)cc1)=N\NC(=O)C(=O)NCCO
CATEGORY: inactive

MOLECULE: CCOc1ccc(NC(=O)CCC(=O)NNC(=O)NC2CCCCC2)cc1
CATEGORY: inactive

Continue with the next compound.
stdin: Can you look up the reported call for `O=S(=O)(Cc1cc(Cl)nc(-c2cccnc2)n1)c1ccccc1` for me?
stdout: inactive

---

# ASSAY: A qHTS for Small Molecule Inhibitors of Shiga Toxin
# TEST SETTINGS: Vero cells, Shiga toxin protein synthesis inhibition reporter; at 38.7 µM
The campaign covered roughly 290,000 compounds. About 27,000 (9.3%) were called active. Cut-off read from the data, not from the text of the source: active = inhibition mostly above about 28% (no sharp cut-off); inactive = mostly below about 43%. The full list was thinned out, with actives kept by preference.
Mark one answer only. Choices: Yes (active), No (inactive)

COMPOUND: COc1cc(/C=C/C(=O)OCC(=O)Nc2cccc(Oc3ccccc3)c2)ccc1O
CATEGORY: Yes

stdin: I would be grateful if you could indicate the recorded call for CC1CC(C)CN(S(=O)(=O)c2cccc3nonc23)C1 (stereo not drawn) .
stdout: No

stdin: Recorded test call requested for `Cc1ccc(C)c(NC(=O)c2ccc3nccnc3c2)c1`
stdout: No

stdin: Dear all, I need the recorded test outcome for `COCCNC(=O)c1ccc(N2CCC3(CC2)OCCO3)c([N+](=O)[O-])c1` , thank you.
stdout: No

stdin: How did this test come out for `COC(=O)c1cn(CC(=O)NCc2cccs2)c2ccccc12` ?
stdout: Yes

stdin: Tell me the assay call for CCC(C)NC(=O)c1ccc(N2CCC3(CC2)OCCO3)c([N+](=O)[O-])c1 (stereo not drawn) please.
stdout: Yes

stdin: For this compound, state the assay outcome: `Cc1nc2sccn2c(=O)c1S(=O)(=O)NCCc1ccccc1`
stdout: No

stdin: Which result was noted for this compound in the test: `COc1ccc(CC(=O)N/N=C(\C)c2ccccn2)cc1`
stdout: No

stdin: # fetch the recorded call for `O=C(CN1CCN(c2ccccn2)CC1)NCc1cccs1` here
stdout: No

stdin: What did the test return for `CCN(CC)C(=O)C(=O)c1cn(CC(=O)NCc2ccc3c(c2)OCO3)c2ccccc12` ?
stdout: No

stdin: Per the assay record, what outcome was assigned to `CCN1CCN(c2sc(S(C)(=O)=O)nc2S(=O)(=O)c2ccc(Cl)cc2)CC1` ?
stdout: No

stdin: Which result was noted for this compound in the test: `COc1ccc(/C=C/C(=O)OCC(=O)Nc2cccc(Oc3ccccc3)c2)c(OC)c1`
stdout: No

---

# ASSAY: A qHTS for Small Molecule Inhibitors of Shiga Toxin
# TEST SETTINGS: Vero cells, Shiga toxin protein synthesis inhibition reporter; at 38.7 µM, hits give high values
Hit rate of the full screen: of about 290,000 compounds, about 27,000 (9.3%) were called active. Many of the other results were omitted from the sample, so actives are more common in it than they were.
MEASURED QUANTITY: inhibition (%)
Could you give me the number in %? Just the number is fine.

COMPOUND: Cc1cccc(NC(=O)N2CCCCCC2)c1C
MEASURED QUANTITY: inhibition
OBS VALUE: 46.2

COMPOUND: Cc1ccc2c(c1)N(CC(=O)NCCCN1CCCCC1)C(=O)c1cccnc1O2
MEASURED QUANTITY: inhibition
OBS VALUE: 2.73

COMPOUND: O=S(=O)(NC1CCCCC1N1CCN(c2ccccc2F)CC1)c1ccccc1 (stereo unspecified)
MEASURED QUANTITY: inhibition
OBS VALUE: -13.8

COMPOUND: O=C(Nc1ccc2nc3n(c(=O)c2c1)CCCCC3)c1ccccc1Cl
MEASURED QUANTITY: inhibition
OBS VALUE: 40.7

COMPOUND: COc1ccc(Nc2cc(Sc3ccc(OC)cc3)ncn2)cc1
MEASURED QUANTITY: inhibition
OBS VALUE: 4.28

// next entry
The compound `COc1ccc2c(CC(=O)N3CCc4cc(OC)c(OC)cc4C3)coc2c1` showed inhibition equal to -3.55
